Items are presented alongside their recorded cytotoxicity at 70.5 h.
Experiment: Human HepG2 cell viability assay in 384 well format
Format: toxicity, cell-based
Design: dose 125 nL, time 70.5 hour; concentration not given beside the values
Conditions: HepG2 cells, read-out: Inhibition
measured-metric: cytotoxicity at 70.5 h (%)

* CSCC(=O)N1CCc2c(cnc(C)c2-c2noc(-c3cc[nH]n3)n2)C1 | -12.6
* CN(C)c1ncc(CNC(=O)Nc2ccc(C(F)(F)F)cc2)n1C | -2.76
* CCOc1cc(CNCCCn2ccnc2)cc(Cl)c1OCC | 19.9
* O=C(c1cnc2[nH]c(=O)[nH]c(=O)c2c1)N1CCCC1C1CCCC1 (stereo not given) | -11.9
* Cc1nc(NC2CC2)c2c(n1)c(C)nn2C | -18.4
* COCC1CC2(CCN(CC3CC3)CC2)CN1Cc1csc(C)n1 (stereo not given) | -5.11
* Cc1ccc(OCC(=O)NS(=O)(=O)Cc2ccccc2)cc1 | -5.22
* Cc1nn(C)cc1-c1cc(C(F)F)n2nc(CCC(=O)O)nc2n1 | -0.99
* O=C(NS(=O)(=O)c1ccc(Cl)cc1F)c1cccc2c1OCCO2 | -108
* COC(=O)c1ccn(CC(=O)Nc2nn(CC3CC3)c3ccccc23)n1 | -0.998

====

Assay: Human HepG2 cell viability assay in 384 well format
Type: toxicity, cell-based
Parameters: dose 125 nL, time 70.5 hour; concentration not given beside the values
Details: HepG2 cells, read-out: Inhibition
// reported cytotoxicity at 70.5 h per item
measured-metric: cytotoxicity at 70.5 h (%)

- COc1cc(OC)c(-n2nnc(C(=O)O)c2C)cc1Cl: 1.66
- COc1ccc(OCc2nc3cc4c(cc3c(=O)o2)OCCCO4)cc1: -5.23
- COc1ccc(CCCC(=O)N2C[C@H](C3CC3)[C@@H](N(C)C)C2)cc1: -9.86
- Cc1ccc(N2CCc3c(CN(C)Cc4ccco4)cncc3C2)nn1: -9.85
- CCn1nc2c(cc1=O)CN(CCOc1ccccc1C#N)CC2: -8.44
- CN(C)c1cc2c(nn1)CCN(C(=O)Cc1ccc3c(c1)CCC3)C2: -1.75
- COc1ccc(OCc2nc(C(=O)N3CCC(NC(C)=O)C3)co2)cc1 (stereo not given): -1.19
- O=C(CCCc1ccccn1)NCC(O)c1ccccc1Cl (stereo not given): 3.77
- CC(C)C1CCN(C(=O)NCC(=O)N(C)CC(F)(F)F)CC1: 20.8
- O=C(CCCN1C(=O)CCC1=O)NCC1(c2ccccc2)CCC1: -11.4
- CCCC(NC(=O)c1cc(C)n(C2CC2)c1C)c1nnn[nH]1 (stereo not given): -0.607
- O=C(c1ccccc1)N1C[C@@H]2CCCO[C@@H]2[C@H](N2CCOCC2)C1: 1.03
- CN(C)C(CNC(=O)NCCOc1ccccc1)c1ccco1 (stereo not given): 13
- CC(=O)NCCn1ccc(-c2ccccn2)n1: -2.73
- O=C(c1c[nH]cn1)N1CCC(F)(F)C2(CCN(c3cccc(F)c3)C2)C1 (stereo not given): -7.39
- CCN(CC)Cc1ccc(C(=O)N2CCN(CC(C)O)CC2)o1 (stereo not given): -5.77
- Nc1nc(CNc2nccc(CCC(F)(F)F)n2)cs1: -7.96
- O=C(NCCCn1ccnc1)NCC(c1ccco1)N1CCCCC1 (stereo not given): 4.46
- CCOc1cc(C)nc(N2CCN(Cc3nccn3CC)CC2)n1: 7.28
- CCN1CCN(C)C(=O)C12CCN(Cc1csc(C)n1)CC2: -8.47
- COc1cccc(OC)c1-c1ccnc2cc(CC(=O)NC(C)C)nn12: -7.86
- COCC(=O)N1CCOCC2(CCN(Cc3cccs3)C2)C1 (stereo not given): -10.6
- Cc1ccc(C)c(NC(=O)N2C[C@H](N(C)C)C[C@H]2CO)c1: -6.76
- CC(Cn1cncn1)NC1CCN(Cc2cccc(O)c2)CC1 (stereo not given): -2.81
- Cc1ccc(C(=O)NCCCn2cncn2)c(=O)[nH]1: 21.9
- O=C(Nc1ccccc1)c1ccc(NCc2ccncc2)nn1: -5.4
- Cc1cnn(CCNCc2csc(-c3ccc(C)o3)n2)c1: 19.9
- CCn1ncc2c1C(COC)CN(Cc1ccc(OC)cc1)C2 (stereo not given): -5.26
- Cc1nnsc1C(=O)N1CCC(c2nc3ccccc3[nH]2)CC1: 24
- O=C(c1cc(Cl)ccc1F)N1CCCC1Cn1cccn1 (stereo not given): 22.7
- CN1CC(=O)N(c2cccc(F)c2)CC12CCN(Cc1ccncc1)C2 (stereo not given): 9.43
- CCn1cc(NC(=O)NCC(c2cccs2)N(C)C)cn1 (stereo not given): -4.7
- CN1CCC(NC(=O)c2cc(Br)cc(Cl)c2O)C1=O (stereo not given): -1.22
- CC1=C(C(=O)N2CCCC(Cn3cc(CO)nn3)C2)OCCO1 (stereo not given): -2.23
- CC[S+](CC)[c-]1c(=O)[nH]c(=O)n(CCc2ccc(F)cc2)c1=O: 3.7

====

Assay: Human HepG2 cell viability assay in 384 well format
Format: toxicity, cell-based
Parameters: dose 125 nL, time 70.5 hour; concentration not given beside the values
Conditions: HepG2 cells, read-out: Inhibition
measured-metric: cytotoxicity at 70.5 h

- COc1ncccc1NC(=O)N1CCCC1c1cc(C)no1 (configuration not stated): -16.3%
- COc1ccc(-n2ccc(C(=O)NCCN3CCC(C)CC3)n2)cc1: -5.24%
- Cc1nccc([C@H]2C[C@@H]3CCN(S(C)(=O)=O)C[C@H]3O2)n1: -0.795%
- Cn1nccc1CN1CCOC(c2cccc(Nc3ccccn3)n2)C1 (configuration not stated): 84.1%
- CCCc1nc(CN(CC)C(=O)c2ccc(S(C)(=O)=O)cc2)no1: -8.4%
- CO[C@H]1COCCN(C(=O)c2ccno2)C1: -1.71%
- Cc1nc(CN2CCCN(C(=O)c3c(C)oc(C)c3C)CC2)cs1: -10%
- O=C1CCC2(CCOC2)CN1CCCOc1cccnc1 (configuration not stated): 0.321%
- CCOC(=O)N1CCC(C(=O)c2cc(F)ccc2F)CC1: -8.51%
- Cc1ccc(NC(=O)Nc2c[nH]c(=O)[nH]c2=O)c(Cl)c1: -8.13%
- Cc1n[nH]c(C)c1NC(=O)CN1CCCC1c1noc(C(C)C)n1 (configuration not stated): 15.2%
- CN1CCCC2(CCN(Cc3cncn3C3CCCCC3)C2)C1=O (configuration not stated): -4.94%

====

Assay: Human HepG2 cell viability assay in 384 well format
Assay type: toxicity, cell-based
Design: dose 125 nL, time 70.5 hour; concentration not given beside the values
Conditions: HepG2 cells, read-out: Inhibition
The entries below come with measured cytotoxicity at 70.5 h values attached.
measured-metric: cytotoxicity at 70.5 h (%)

• Cc1cc(OCC(=O)NS(=O)(=O)c2c(C)noc2C)ccc1Cl = -7.45
• O=C1COC2(CCN(Cc3ccoc3)CC2)CN1 = -30.5
• CNC(=O)CNC(=O)NCc1cc2c(s1)CCC(C)(C)C2 = 2.16
• CC(C)Cn1c(=O)n(CCn2cc(Cl)cn2)c2cc(C(=O)O)cnc21 = -7.3
• COCc1cc(CNCc2c(C)n(CC(C)C)c3ccccc23)n[nH]1 = -11
• CCc1nc(C)cn1C(=O)Nc1ccccc1 = 2.98
• CCN1N=C(C(=O)N2CCCC(c3nc(C)cs3)C2)CCC1=O (configuration not stated) = -2.03
• CC1CN(C)CCN1C(=O)c1cccn1Cc1cccs1 (configuration not stated) = -8.42
• Cn1cc(C(=O)N2CCN(c3ncccn3)CC2)ccc1=O = -2.44
• Cc1ccc(CN2Cc3nnn(C)c3C(COCC3CC3)C2)s1 (configuration not stated) = 4.45
• O=C(c1cccnc1)N1CCC2(CC1)CN(c1ccccn1)CCO2 = -13.7
• CC(C)CN1C(=O)C2(CCN(Cc3cccs3)C2)c2ccccc21 (configuration not stated) = -16.4
• CCc1ncc2c(n1)CN(Cc1ncc(C(C)(C)C)o1)CC2 = 60.9
• Cn1nnc2cc(C(=O)NS(=O)(=O)c3ccc(F)cc3)ccc21 = -3.7
• CCOc1ncccc1CNC(=O)N1CCCC1c1ccsc1 (configuration not stated) = -0.934
• COCCNC(=O)[C@H]1C[C@@H]2CCN(Cc3ccncc3)C[C@H]2O1 = -9.09
• CC(=O)N1CCCn2nc(CNS(=O)(=O)N(C)C(C)C)cc2C1 = -14.6
• COCCN1CCc2onc(C(c3ccccc3)c3ccccc3)c2C1 = -8.42
• CCOc1cc(/C=C/c2ncc(C(=O)O)s2)cc(Br)c1O = -11.1
• CC(C)C1CN(c2nccc(N)n2)CCC(=O)N1Cc1ccc(F)cc1 (configuration not stated) = -8.72
• CN(CCCc1ccccc1)C(=O)c1ccccc1NCC(=O)O = -13.3
• CC(C)c1noc(-c2ccnc(-n3cnc(C(=O)O)c3)c2)n1 = -14.7
• c1cc(CN2C[C@@H]3COC[C@]3(COCC3CC3)C2)ccn1 = 11.6
• CN(CCc1ccccc1)c1cnn(CC(=O)N2CCOCC2)c(=O)c1 = -7.73
• CC(C)N(C)Cc1nnc2n1CCCN(C(=O)c1ccco1)C2 = -6.16
• CC1CCCCN1C(=O)Cn1cc(I)cn1 (configuration not stated) = -1.82
• Cc1cccc(N2CC3(CCN(S(=O)(=O)C4CC4)C3)C2)n1 = -6.18
• Cc1noc([C@@H]2C[C@@H]3CCN(CC4CC4)C[C@H]3O2)n1 = -4.17
• Cn1cnc2c1CCN(c1ccnc(-c3ccccc3)n1)C2 = -18.3
• CCc1nnc(NC(=O)NCCN(C)C(=O)OC(C)(C)C)s1 = -9.9
• CCOc1ccccc1CNC1CCCN(Cc2noc(C)n2)C1 (configuration not stated) = -9.86
• O=C(Cc1ccccc1F)N1CCN(C(=O)c2cccc(F)c2)CC1 = 38
